B1: library; numbered along this chain (parent)
chain: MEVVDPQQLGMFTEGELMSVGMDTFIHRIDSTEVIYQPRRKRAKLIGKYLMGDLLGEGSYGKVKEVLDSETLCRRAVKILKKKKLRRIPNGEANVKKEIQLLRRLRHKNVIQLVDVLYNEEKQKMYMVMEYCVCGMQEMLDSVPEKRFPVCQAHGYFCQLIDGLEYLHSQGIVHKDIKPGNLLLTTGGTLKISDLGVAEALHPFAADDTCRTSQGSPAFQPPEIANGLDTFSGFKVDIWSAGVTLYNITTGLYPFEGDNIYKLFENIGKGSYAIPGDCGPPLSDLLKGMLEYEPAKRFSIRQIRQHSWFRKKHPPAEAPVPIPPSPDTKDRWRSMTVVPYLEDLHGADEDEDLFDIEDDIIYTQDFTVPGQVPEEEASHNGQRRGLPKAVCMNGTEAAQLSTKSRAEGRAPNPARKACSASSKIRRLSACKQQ

variants of: B1; experiment: STK11 functional score (HeLa growth suppression), rescaled enrichment; synonymous median = 1, nonsense median = 0 (normalised score); settings: with HeLa; variant type: missense
Threshold check on STK11 functional score: at or above 1 gives Met, strictly below gives Not met.

IN: Can P387M be said to have STK11 functional score at or above 1?
OUT: Met

IN: // inclusive: STK11 functional score at least 1? input: P217Y
OUT: Met

IN: Check the entry D229T : does STK11 functional score equal or exceed 1?
OUT: Met

IN: Could you verify whether the entry V320M shows STK11 functional score of no less than 1?
OUT: Met

IN: Determine whether this variant has STK11 functional score no lower than 1: L290Y
OUT: Not met

IN: I'd appreciate it if you could say whether L160E has STK11 functional score at least equal to 1.
OUT: Not met

IN: Given S378G , state whether its STK11 functional score is at least 1.
OUT: Not met

IN: Record D23G ; criterion: STK11 functional score no lower than 1. Met?
OUT: Met

IN: Is the recorded value of STK11 functional score equal to or greater than 1 for this variant? L195G
OUT: Not met

IN: Evaluate G180Q : STK11 functional score at minimum 1?
OUT: Met

IN: Hello, I need to know if P319R has measured STK11 functional score not below 1. Thanks!
OUT: Met

IN: Has L427V a recorded STK11 functional score greater than or equal to 1?
OUT: Met

The origin of these recorded values is the supplement of paper PMC12338614.
